assay-system: zif268 DBD R18D/E21N (DN) (UniProt P08046 331-420, R349D;E352N)
procedure-text: competition EMSA (QuMFRA); 30 mM Tris-HCl pH 8.0, 50 mM NaCl, 0.1 mg/ml BSA, 3 mM DTT, 20 uM ZnSO4, 5 ug/ml poly(dI-dC), 1 h on ice; 10% polyacrylamide gel
Recorded measurements of binding signal, one per entry

Check out these entries, answers already filled in.
binder: Zif_2 (CA) (dsDNA) DNA 1: TCGAGGTCGACGGTATCGCGTGGGCACTCCACTAGTTCTAGAGCGGCCGCCAC DNA 2: GTGGCGGCCGCTCTAGAACTAGTGGAGTGCCCACGCGATACCGTCGACCTCGA
binding signal: 1.21 Ka relative to CG
--
binder: Zif_6 (AC) (dsDNA) DNA 1: TCGAGGTCGACGGTATCGCGTGGGACCTCCACTAGTTCTAGAGCGGCCGCCAC DNA 2: GTGGCGGCCGCTCTAGAACTAGTGGAGGTCCCACGCGATACCGTCGACCTCGA
binding signal: 11.8 Ka relative to CG
--
binder: Zif_5 (AA) (dsDNA) DNA 1: TCGAGGTCGACGGTATCGCGTGGGAACTCCACTAGTTCTAGAGCGGCCGCCAC DNA 2: GTGGCGGCCGCTCTAGAACTAGTGGAGTTCCCACGCGATACCGTCGACCTCGA
binding signal: 4.02 Ka relative to CG
--
binder: Zif_4 (AG) (dsDNA) DNA 1: TCGAGGTCGACGGTATCGCGTGGGAGCTCCACTAGTTCTAGAGCGGCCGCCAC DNA 2: GTGGCGGCCGCTCTAGAACTAGTGGAGCTCCCACGCGATACCGTCGACCTCGA
binding signal: 14.5 Ka relative to CG

Now examine the next entry.
Quick note, binding signal for Zif_3 (CC) (dsDNA) DNA 1: TCGAGGTCGACGGTATCGCGTGGGCCCTCCACTAGTTCTAGAGCGGCCGCCAC DNA 2: GTGGCGGCCGCTCTAGAACTAGTGGAGGGCCCACGCGATACCGTCGACCTCGA landed at 2.61 Ka relative to CG

The reported measurements were obtained from paper PMC1184061.
